Test system: MCF10F
test.method.notes: -log10 GI50 (growth inhibition 50%) (-log10(M)); higher = more potent growth inhibition
Catalogue of -log10 GI50 values
measure: -log10 GI50

compound	qualifier.sign	result
CSCC[C@H](NC(=O)[C@H](Cc1ccccc1)NC[C@@H](NC[C@@H](N)CS)C(C)C)C(=O)O	<	4.48
CC(C(C)N1CC(=O)NC(=O)C1)N1CC(=O)NC(=O)C1 (stereo unspecified)	<	4.3
CO[C@H]1C[C@@H]2CC[C@@H](C)[C@@](O)(O2)C(=O)C(=O)N2CCCC[C@H]2C(=O)O[C@H]([C@H](C)C[C@@H]2CC[C@@H](OC(=O)C(C)(CO)CO)[C@H](OC)C2)CC(=O)[C@H](C)/C=C(\C)[C@@H](O)[C@@H](OC)C(=O)[C@H](C)C[C@H](C)/C=C/C=C/C=C/1C	=	6.11
CC(C)C[C@H](NC(=O)[C@H](Cc1ccccc1)NC(=O)c1cnccn1)B(O)O	=	7.59
CC(C)Oc1ccc(C(=O)N[C@H](CNC(=O)CN(C)C)Cc2ccc(-c3cn4cccc([C@H](C)O)c4n3)cc2)cc1Cl	=	6.29
CC(C)C[C@@H](C=O)NC(=O)[C@H](CC(C)C)NC(=O)[C@H](CC(C)C)NC(=O)OCc1ccccc1	=	7.14
